# Assay Target: ΔF508-CFTR (Homo sapiens, UniProt P13569, DEL508-508)
# Construct: expressed in transfected cells
# Sequence (P13569 with tags, fused parts or gaps DEL508-508): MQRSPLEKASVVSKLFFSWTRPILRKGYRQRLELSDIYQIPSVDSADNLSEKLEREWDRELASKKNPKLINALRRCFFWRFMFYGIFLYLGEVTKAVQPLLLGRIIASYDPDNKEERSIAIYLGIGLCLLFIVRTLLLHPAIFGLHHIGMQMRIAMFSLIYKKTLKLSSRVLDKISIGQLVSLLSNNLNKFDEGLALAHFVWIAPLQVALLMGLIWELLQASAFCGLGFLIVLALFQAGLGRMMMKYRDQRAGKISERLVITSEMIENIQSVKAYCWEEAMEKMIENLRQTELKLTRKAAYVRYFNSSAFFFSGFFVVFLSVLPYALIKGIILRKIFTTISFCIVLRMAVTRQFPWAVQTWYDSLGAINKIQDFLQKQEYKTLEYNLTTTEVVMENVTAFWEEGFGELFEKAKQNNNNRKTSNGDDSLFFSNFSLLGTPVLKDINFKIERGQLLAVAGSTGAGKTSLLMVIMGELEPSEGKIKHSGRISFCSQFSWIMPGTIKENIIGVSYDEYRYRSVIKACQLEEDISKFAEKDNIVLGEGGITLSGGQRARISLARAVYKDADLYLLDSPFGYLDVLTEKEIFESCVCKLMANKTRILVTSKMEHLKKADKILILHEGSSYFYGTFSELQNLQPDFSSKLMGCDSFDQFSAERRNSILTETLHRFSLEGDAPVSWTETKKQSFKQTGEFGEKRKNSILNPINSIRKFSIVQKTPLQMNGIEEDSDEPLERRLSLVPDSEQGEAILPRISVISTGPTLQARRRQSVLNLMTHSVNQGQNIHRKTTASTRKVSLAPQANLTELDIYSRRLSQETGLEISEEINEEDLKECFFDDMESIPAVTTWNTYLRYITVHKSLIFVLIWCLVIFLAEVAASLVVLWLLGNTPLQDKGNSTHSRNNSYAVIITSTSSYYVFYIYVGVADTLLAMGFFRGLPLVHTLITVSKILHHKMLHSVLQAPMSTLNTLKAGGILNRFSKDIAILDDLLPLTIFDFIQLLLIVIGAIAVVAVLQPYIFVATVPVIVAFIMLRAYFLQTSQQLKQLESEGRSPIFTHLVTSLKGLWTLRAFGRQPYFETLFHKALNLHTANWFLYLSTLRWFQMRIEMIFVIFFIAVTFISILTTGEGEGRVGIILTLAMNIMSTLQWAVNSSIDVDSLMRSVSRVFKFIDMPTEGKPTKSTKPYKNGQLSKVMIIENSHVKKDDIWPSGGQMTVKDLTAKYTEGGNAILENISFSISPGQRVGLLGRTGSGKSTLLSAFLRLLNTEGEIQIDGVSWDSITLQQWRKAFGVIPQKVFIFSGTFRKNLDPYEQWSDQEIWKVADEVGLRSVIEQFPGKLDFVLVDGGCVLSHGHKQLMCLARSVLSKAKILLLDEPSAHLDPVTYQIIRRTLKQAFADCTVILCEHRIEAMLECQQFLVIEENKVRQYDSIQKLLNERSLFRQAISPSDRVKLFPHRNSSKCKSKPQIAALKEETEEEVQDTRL
# Test Details: Membrane potential optical (FRET/VIPR) assay, identification of potentiator compounds
# Type: cell-based
# Settings: Table 3; relative efficacy; assay not given
Measured Quantity: % Activity

Some entries whose results are on file:
O=C(Nc1ccccc1-c1ccoc1)c1c[nH]c2ccccc2c1=O ... ++ (between 25% to 100%)
CCOc1ccccc1-c1ccccc1NC(=O)c1c[nH]c2ccccc2c1=O ... ++ (between 25% to 100%)
CC(C)(C)c1cccc(NC(=O)c2c[nH]c3ccccc3c2=O)c1 ... ++ (between 25% to 100%)
CC(C)(C)c1ccc(NC(=O)c2c[nH]c3ccccc3c2=O)cc1CN ... + (<25%)
COc1nc(NC(=O)c2c[nH]c3ccccc3c2=O)ccc1C(F)(F)F ... + (<25%)

Problem: // % Activity lookup, key: CCCc1ccc(NC(=O)c2c[nH]c3ccccc3c2=O)cc1NC(=O)OC
Result: ++ (between 25% to 100%)

Problem: // % Activity lookup, key: O=C(Nc1ccccc1N1CCCCC1)c1c[nH]c2ccccc2c1=O
Result: ++ (between 25% to 100%)

Problem: // % Activity lookup, key: Nc1cc(NC(=O)c2c[nH]c3ccccc3c2=O)ccc1OC(F)(F)F
Result: ++ (between 25% to 100%)

Problem: // % Activity lookup, key: CCOCCOc1cc(NC(=O)c2c[nH]c3ccccc3c2=O)ccc1C(C)(C)C
Result: ++ (between 25% to 100%)

###

# Assay Target: ΔF508-CFTR (Homo sapiens, UniProt P13569, DEL508-508)
# Construct: expressed in transfected cells
# Test Details: Membrane potential optical (FRET/VIPR) assay, identification of potentiator compounds
# Type: cell-based
# Settings: Table 3; assay not given
Measured Quantity: EC50

Some entries whose results are on file:
O=C(Nc1ccccc1SC(F)(F)F)c1c[nH]c2ccccc2c1=O [Compound 371] ... < 10 µM
CCOC(=O)[C@H]1CCCN(c2ccc(NC(=O)c3c[nH]c4ccccc4c3=O)c(C(F)(F)F)c2)C1 [Compound 660] ... < 10 µM
CCc1cccc2c(=O)c(C(=O)Nc3cc(O)c(C(C)(C)C)cc3F)c[nH]c12 [Compound 605] ... 10 to 25 µM
O=C(Nc1ccccc1-c1ccc2c(c1)OCO2)c1c[nH]c2ccccc2c1=O [Compound 135] ... < 10 µM
CC(C)(C)c1ccccc1NC(=O)c1c[nH]c2ccccc2c1=O [Compound 90] ... < 10 µM

Problem: // EC50 lookup, key: O=C(Nc1ccc(S(=O)(=O)N2CCOCC2)cc1)c1c[nH]c2ccccc2c1=O [Compound 276]
Result: 10 to 25 µM

Problem: // EC50 lookup, key: CC(C)COC(=O)NCC(C)(C)c1ccc(NC(=O)c2c[nH]c3ccccc3c2=O)cc1 [Compound 251]
Result: < 10 µM

Problem: // EC50 lookup, key: Cc1ccc(-c2ccccc2NC(=O)c2c[nH]c3ccccc3c2=O)cc1 [Compound 181]
Result: < 10 µM

Problem: // EC50 lookup, key: CC(C)(C)c1cc(C(C)(C)C)c(NC(=O)c2c[nH]c3ccc(S(=O)(=O)N4CCCC4)cc3c2=O)cc1O [Compound 255]
Result: < 10 µM

Problem: // EC50 lookup, key: Cc1ccc(C#N)c(NC(=O)c2c[nH]c3ccccc3c2=O)c1 [Compound 89]
Result: 25 to 60 µM

Problem: // EC50 lookup, key: CC(C)(C)c1cc(C(C)(C)C)c(NC(=O)c2c[nH]c3cccc(N)c3c2=O)cc1O [Compound 585]
Result: < 10 µM

Problem: // EC50 lookup, key: Cc1cccc(C(C)C)c1NC(=O)c1c[nH]c2ccccc2c1=O [Compound 430]
Result: < 10 µM

Problem: // EC50 lookup, key: Cc1cccc2[nH]cc(C(=O)Nc3ccc(N4CC[C@@H](C)C4)cc3C(F)(F)F)c(=O)c12 [Compound 613]
Result: < 10 µM

Problem: // EC50 lookup, key: CC(=O)Nc1ccc(C(C)(C)C)c(NC(=O)c2c[nH]c3ccccc3c2=O)c1 [Compound 316]
Result: 10 to 25 µM

Problem: // EC50 lookup, key: O=C(Nc1cc(O)c(C(F)(F)F)cc1F)c1c[nH]c2ccccc2c1=O [Compound 501]
Result: < 10 µM

Problem: // EC50 lookup, key: CC(C)(C)c1ccc(NC(=O)c2c[nH]c3ccc(F)cc3c2=O)cc1F [Compound 527]
Result: < 10 µM

Problem: // EC50 lookup, key: NCc1ccccc1-c1ccc(NC(=O)c2c[nH]c3ccccc3c2=O)cc1 [Compound 86]
Result: 10 to 25 µM
